Overview of recorded pIC50 for various compounds
tested on: OCI-LY7 cells; assay: Cell viability assay (CellTiter-Glo, 72 h); type: cell-based; settings: Homo sapiens, read-out: Results from inhibition of OCI-LY7 cells (IC50)
pIC50: −log10 of the molar value.

Query (compound): Cc1cc[nH]c(=O)c1-c1ccc2nc(Nc3cccc(NC(=O)[C@@H]4CCCN4)c3)ncc2c1 ; field requested: pIC50
5.60 to 6.30

Then Cc1cc[nH]c(=O)c1-c1ccc2nc(Nc3cccc(NC(=O)/C=C/CN4CCOCC4)c3)ncc2c1 ?
> 6.30

Follow-up item: CC#CC(=O)N(CC)c1cccc(Nc2ncc3cc(-c4c(C)cc[nH]c4=O)ccc3n2)c1
> 6.30

Follow-up entry: [2H]C([2H])([2H])N(C(=O)C=C)c1cccc(Nc2ncc3cc(-c4c(C)cc[nH]c4=O)ccc3n2)c1
> 6.30

Another compound: Cc1ccn(C)c(=O)c1-c1ccc2nc(Nc3cccc(N)c3)ncc2c1
5.60 to 6.30

Another: Cc1ccn(-c2cccc(C(F)(F)F)c2)c(=O)c1-c1ccc2nc(Nc3cccc(N)c3)ncc2c1
> 6.30

Next up: [2H]C([2H])([2H])C([2H])([2H])N(C(=O)C=C)c1cccc(Nc2ncc3cc(-c4c(C)cc[nH]c4=O)ccc3n2)c1
> 6.30

What do we get for [2H]C([2H])=C([2H])C(=O)N(CC)c1cccc(Nc2ncc3cc(-c4c(C)cc[nH]c4=O)ccc3n2)c1 ?
> 6.30

Try this compound too: CNc1cccc(Nc2ncc3cc(-c4c(C)cc[nH]c4=O)ccc3n2)c1
> 6.30

Field entry: [2H]C([2H])=C([2H])C(=O)N(C)c1cccc(Nc2ncc3cc(-c4c(C)cc[nH]c4=O)ccc3n2)c1
> 6.30

***
# get_value(readout='pIC50', item= Cc1cc[nH]c(=O)c1-c1ccc2nc(Nc3cccc(N)c3)ncc2c1 )
> 6.30

---

test system: OCI-LY7 cells; test: Cell viability assay (CellTiter-Glo, 72 h); format: cell-based; details: Homo sapiens, read-out: Results from inhibition of OCI-LY7 cells (IC50)
Experimental endpoint: IC50

Can you look up the measured IC50 of Cc1cc[nH]c(=O)c1-c1ccc2nc(Nc3cccc(NC(=O)CCN(C)C)c3)ncc2c1 [Example 11] for me?
< 500 nM

Let us now turn to C=CC(=O)N(C)c1cccc(Nc2ncc3cc(-c4c(C)cc[nH]c4=O)ccc3n2)c1 [Example 23]
< 500 nM

Check C=CC(=O)Nc1cccc(Nc2ncc3cc(-c4c(C)ccn(C)c4=O)ccc3n2)c1 [Example 17] too.
500 to 2500 nM

Please answer likewise for C=CC(=O)N(CCN(C)C)c1cccc(Nc2ncc3cc(-c4c(C)cc[nH]c4=O)ccc3n2)c1 [Example 43]
≥ 2500 nM

Repeat for the following molecule: C=CC(=O)N[C@H](C(=O)Nc1cccc(Nc2ncc3cc(-c4c(C)cc[nH]c4=O)ccc3n2)c1)C(C)C [Example 19]
< 500 nM

***
Look at this molecule and give its reported IC50. C=CC(=O)N(CC)c1cccc(Nc2ncc3cc(-c4c(C)ccn(C(C)=O)c4=O)ccc3n2)c1 [Example 29]
500 to 2500 nM

Then C=C(F)C(=O)N(CC)c1cccc(Nc2ncc3cc(-c4c(C)cc[nH]c4=O)ccc3n2)c1 [Example 35] ?
< 500 nM

The origin of these recorded values is patent US20220017484A1.
